Tested on: SF-268 CNS
Experiment: NCI tumour cell line growth inhibition, 48 h; in the data active means GI50 below about 0.43 µM; inactive means the rest
Outcome codes: active, inactive

[[record]]
samplesmiles = "CCN=C1C=CC(=C(c2ccc(N(C)C)cc2)c2ccc(N(C)C)cc2)c2ccccc21"
assignedclass = "active"

[[record]]
samplesmiles = "N#CC(C#N)=CN1CCN(C(=O)c2ccco2)C1=S"
assignedclass = "inactive"

[[record]]
samplesmiles = "CCc1ccc(NC(=O)Nc2c[nH]c3ccccc23)cc1"
assignedclass = "inactive"

[[record]]
samplesmiles = "CC[C@](C)(O)C(=O)O[C@H]1C(=O)O[C@@H]2C[C@H]3C(C)=CC(=O)[C@@H](O)[C@]3(C)[C@H]3[C@@]4(O)OC[C@]32[C@@H]1[C@@H](C)[C@H]4O"
assignedclass = "active"

[[record]]
samplesmiles = "C=C(C)[C@@H]1CC[C@]2(C(=O)NCCCN)CC[C@]3(C)[C@H](CC[C@@H]4[C@@]5(C)CC[C@H](O)C(C)(C)[C@@H]5CC[C@]43C)[C@@H]12"
assignedclass = "inactive"


----------
Test system: NCI-H460 lung
Outcome codes: 1 for active, 0 for inactive

[[record]]
samplesmiles = "O=C(CCN1CCCC1)Nc1ccc2c(NCc3ccc(F)cc3)c3ccccc3nc2c1"
assignedclass = 1

[[record]]
samplesmiles = "O=c1cc(CNc2cc(F)cc(F)c2)c2ccc(I)cc2[nH]1"
assignedclass = 0

[[record]]
samplesmiles = "CCOC(=O)c1c2c(n(CC(C)C)c1C)-c1nc[nH]c1C(=O)C2=O"
assignedclass = 0

[[record]]
samplesmiles = "COc1cc(Cn2cc3c(c2)-c2oncc2CC3)cc(OC)c1OC"
assignedclass = 1

[[record]]
samplesmiles = "NC(=O)[C@H]1CCN(c2ncnc(N)c2F)C[C@@H]1N1CCC[C@@H](Nc2cc(Cl)cc(C(F)(F)F)c2)C1=O"
assignedclass = 0

[[record]]
samplesmiles = "COc1ccc(-c2ccc(-c3ccc(C(=N)N)nc3)s2)cc1"
assignedclass = 0

[[record]]
samplesmiles = "CC[C@H](Nc1nc(N)nc(C)c1C#N)c1nc2cccc(CN(C)c3ncc(C(=O)NO)cn3)c2c(=O)n1-c1ccccc1"
assignedclass = 0


----------
Test system: RXF 393 renal
Test: NCI tumour cell line growth inhibition, 48 h; in the data active means GI50 below about 0.43 µM; inactive means the rest
Possible outcomes: y (active), n (inactive)

[[record]]
molecule = "CC12CCC=CC1CCC1C2CCC2(C)C(c3ccc(=O)oc3)CCC12O (configuration not stated)"
tgt = "RXF 393 renal"
assignedclass = "y"

[[record]]
molecule = "CSc1nnc(CCSc2ccnc3c(C(F)(F)F)cccc23)o1"
tgt = "RXF 393 renal"
assignedclass = "n"

[[record]]
molecule = "CC[C@H](Nc1nc(N)nc(C)c1C#N)c1nc2cccc(CN(C)c3ncc(C(=O)NO)cn3)c2c(=O)n1-c1ccccc1"
tgt = "RXF 393 renal"
assignedclass = "n"

[[record]]
molecule = "COc1cc2nc(Cl)nc(Nc3cccc(C(=O)/C=C/c4ccccc4)c3)c2cc1OC"
tgt = "RXF 393 renal"
assignedclass = "n"

[[record]]
molecule = "CCc1c(C)[nH]c(/C=C2\\N=C(c3ccc[nH]3)C=C2OC)c1C"
tgt = "RXF 393 renal"
assignedclass = "n"

[[record]]
molecule = "COc1cccc(C2=C(c3cn(C)c4ccccc34)C(=O)NC2=O)c1"
tgt = "RXF 393 renal"
assignedclass = "n"

[[record]]
molecule = "CCOC(=O)Cc1c[nH]c(=S)[nH]c1=O"
tgt = "RXF 393 renal"
assignedclass = "n"


----------
System: LOX IMVI melanoma
Experiment: NCI tumour cell line growth inhibition, 48 h
resultType: TGI

[[record]]
molecule = "COc1cc(S(=O)(=O)Nc2ccc(-c3csc(N4C(=O)CSC4c4cccs4)n3)cc2)ccc1Cl (stereo not given)"
assayresult = "36.6 µM"

[[record]]
molecule = "CCCN(Cc1ccc(F)cc1)c1ccc(CO)c(Cl)c1"
assayresult = "21.9 µM"

[[record]]
molecule = "COc1ccc(C(=O)/C=C/c2ccc(OCC(=N)N)cc2)cc1OC"
assayresult = "> 10 µM"

[[record]]
molecule = "Cc1occc1C(=S)Nc1ccc(Cl)c(C(=O)OCC(F)(F)F)c1"
assayresult = "34.7 µM"

[[record]]
molecule = "C=C1C(=O)O[C@@H]2C1CC(=O)C(C)CC/C=C(\\C)CCC[C@H](C)[C@H]2OC(C)=O (stereo not given in full)"
assayresult = "6.22 µM"

[[record]]
molecule = "O=C1c2ccccc2C(=O)N1CC1(C(=O)O)NCCS1(=O)=O (stereo not given)"
assayresult = "> 100 µM"

[[record]]
molecule = "c1ccc(Nc2nnc(CSc3nc(-c4ccccc4)c(-c4ccccc4)[nH]3)s2)cc1"
assayresult = "31.8 µM"

[[record]]
molecule = "O=C(CC1Sc2ccccc2NC1=O)Nc1cc(Cl)ccc1Cl (stereo not given)"
assayresult = "> 100 µM"

[[record]]
molecule = "CCCCc1ccc(Nc2nc(Cl)c3c(ncn3COCCOC(C)=O)n2)cc1"
assayresult = "34 µM"

[[record]]
molecule = "CCN=C1C=CC(=C(c2ccc(N(C)C)cc2)c2ccc(N(C)C)cc2)c2ccccc21"
assayresult = "1.01 µM"


----------
System: OVCAR-4 ovarian
Assay: NCI tumour cell line growth inhibition, 48 h
# TGI values compiled below
resultType: TGI

[[record]]
compound = "CC1=C(C(=O)Nc2cccc3c2C(=O)NC3=O)CC(C(=O)Nc2cccc3c2C(=O)NC3=O)=C(C)N1"
assayresult = "> 100 µM"

[[record]]
compound = "O=C(O)CSSCC(=O)O"
assayresult = "> 100 µM"

[[record]]
compound = "N#CSc1ncnc2nc[nH]c12"
assayresult = "> 100 µM"

[[record]]
compound = "Cc1ccc2[nH]c(C(=O)NN3C(=O)CSC34CCCCC4C)c(-c3ccccc3)c2c1 (stereo unspecified)"
assayresult = "34.2 µM"

[[record]]
compound = "COc1cc(Cn2cc3c(c2)-c2oncc2CC3)cc(OC)c1OC"
assayresult = "> 100 µM"

[[record]]
compound = "O=c1cc(CNc2cc(F)cc(F)c2)c2ccc(I)cc2[nH]1"
assayresult = "> 100 µM"


----------
Test system: UACC-257 melanoma
Assay: NCI tumour cell line growth inhibition, 48 h
*1 amine or outer side, *2 acyl side, *3 side chain or, on linkers, in order; H or OH if unused. Where a SMILES comes first, the peptide text is derived from it. Bridges are numbered along the chain shown (N, C = ends). [ ]: non-standard residue; d: D form. The star is where a group is joined. X38 = CC[C@H](C)[C@@H](N[*:1])[C@@H](O)CC(=O)[*:2]; NMeY = CN[C@@H](Cc1ccc(O)cc1)C(=O)O; dNMeL = CN[C@H](CC(C)C)C(=O)O; Hiv = CC(C)[C@H](O)C(=O)O; Pyruvoyl = CC(=O)C(=O)*
resultType: TGI

[[record]]
molecule = "Cc1nc2sc(CCl)nn2c(=O)c1Cl"
assayresult = "29.7 µM"

[[record]]
molecule = "COC(=O)[C@H](Cc1ccccc1)NC(=O)NCCN(CCNC(=O)N[C@@H](Cc1ccccc1)C(=O)OC)C(=O)N[C@@H](Cc1ccccc1)C(=O)OC"
assayresult = "40.4 µM"

[[record]]
molecule = "CN(C)CCCNC(=O)c1cc(NC(=O)CCNS(=O)(=O)c2ccc3c(c2)C(=O)c2ccccc2C3=O)cn1C"
assayresult = "> 100 µM"

[[record]]
molecule = "CC(=O)/C(=C\\c1ccco1)C(=O)Nc1ccccc1"
assayresult = "> 100 µM"

[[record]]
molecule = "COc1ccc(Cn2nc(-c3cc(OC)c(OC)c(OC)c3)c3c2CCc2cnoc2-3)cc1OC"
assayresult = "> 100 µM"

[[record]]
molecule = "CC(C)=CCOc1cc(NC(=S)c2ccoc2C)ccc1Cl"
assayresult = "> 100 µM"

[[record]]
molecule = "CCCCCCn1c(SCC)c2ccccc2c1-c1nc(F)nc(F)n1"
assayresult = "> 100 µM"

[[record]]
molecule = "CC1Oc2cc3c(-c4c(O)cc(O)c5c(O)c6c(cc45)OC(C)C(C)C6=O)c(O)cc(O)c3c(O)c2C(=O)C1C (stereo not drawn)"
assayresult = "1.68 µM"

[[record]]
molecule = "CC[C@H](C)[C@H]1NC(=O)[C@@H](NC(=O)[C@@H](CC(C)C)N(C)C(=O)[C@@H]2CCCN2C(=O)C(C)=O)[C@@H](C)OC(=O)[C@H](Cc2ccc(OC)cc2)N(C)C(=O)[C@@H]2CCCN2C(=O)[C@H](CC(C)C)NC(=O)[C@H](C(C)C)OC(=O)C[C@@H]1O (Pyruvoyl-P[dNMeL]T[X38][Hiv]LP[NMeY](Me); ester 3-C)"
assayresult = "0.0655 µM"

[[record]]
molecule = "NC(=O)[C@H]1CCN(c2ncnc(N)c2F)C[C@@H]1N1CCC[C@@H](Nc2cc(Cl)cc(C(F)(F)F)c2)C1=O"
assayresult = "59.7 µM"

[[record]]
molecule = "O=C(CCn1[nH]c(=O)c(Cl)c(Cl)c1=O)NOCCCc1ccccc1"
assayresult = "> 100 µM"

[[record]]
molecule = "CCCCCC(=O)Nc1n[nH]nc1C(N)=O"
assayresult = "> 100 µM"

[[record]]
molecule = "CCN=C1C=CC(=C(c2ccc(N(C)C)cc2)c2ccc(N(C)C)cc2)c2ccccc21"
assayresult = "0.0592 µM"

[[record]]
molecule = "CC(=O)OCC(=O)[C@@]1(O)CC[C@H]2[C@@H]3CCC4=CC(=O)[C@H](C)C[C@]4(C)[C@H]3[C@@H](O)C[C@@]21C"
assayresult = "> 100 µM"

[[record]]
molecule = "CC#COP(=O)(OCC)OCC"
assayresult = "> 100 µM"

[[record]]
molecule = "O=P(O)(OCC(O)O)OCC(O)O"
assayresult = "> 100 µM"

[[record]]
molecule = "CC1=NC(=O)C(C)(c2ccccc2)N1CCc1ccccc1 (stereo not drawn)"
assayresult = "> 100 µM"

[[record]]
molecule = "NCCCNCCCNCCCN"
assayresult = "> 100 µM"

